test system: IL-1β production in PMA-differentiated THP-1 cells; assay: IL-1β production in PMA-differentiated THP-1 cells stimulated with gramicidin (hTHP-1 assay containing 2% fetal bovine serum; Procedures 1-3); type: cell-based, human; settings: Homo sapiens, THP-1, hTHP-1 assay containing 2% fetal bovine serum; class symbols; read-out: hTHP-1 IC50 (Average IC50 of compounds in hTHP-1 assay)
READOUT: IC50

COMPOUND	READOUT	RESULT
CCc1cc(OC(F)F)cc(C(C)C)c1CC(=O)N=S(N)(=O)c1sc(C(C)(C)O)cc1F (stereo not drawn)	IC50	200 to 1000 nM
CC(C)c1cc(C#N)c(F)c(C(C)C)c1CC(=O)N=S(N)(=O)c1cnc(C(C)(C)O)s1 (stereo not drawn)	IC50	200 to 1000 nM
CC(C)c1cc2c(c(C(C)C)c1CC(=O)N=S(N)(=O)c1cc(C(C)(C)O)cs1)COC2 (stereo not drawn)	IC50	40 to 200 nM
CC(C)(O)c1nc(CO)c(S(N)(=O)=NC(=O)Cc2c3c(cc4c2CCC4)CCC3)s1 (stereo not drawn) [Example 23]	IC50	1000 to 5000 nM
CC(C)c1cc(C#N)c(F)c(C(C)C)c1CC(=O)N=S(N)(=O)c1sc(C(C)(C)O)cc1F (stereo not drawn)	IC50	8 to 40 nM
CC(C)c1cc(C(F)F)cc(C(C)C)c1CC(=O)N=S(N)(=O)c1sc(C(C)(C)O)cc1F (stereo not drawn)	IC50	40 to 200 nM
Cc1nc(C(C)(C)O)sc1S(N)(=O)=NC(=O)Cc1c(C(C)C)cc(C#N)cc1C(C)C (stereo not drawn)	IC50	200 to 1000 nM
CC(C)c1cc(-c2ccc3ccccc3c2)cc(C(C)C)c1CC(=O)N=S(N)(=O)c1ncc(C(C)(C)O)s1 (stereo not drawn)	IC50	200 to 1000 nM
CCc1cc(C#N)cc(C(C)C)c1CC(=O)N=S(N)(=O)c1ccc(CN(C)C)cc1 (single isomer, unassigned) [Example 59]	IC50	5000 to 30000 nM

* * *

system: IL-1β production in PMA-differentiated THP-1 cells; test: IL-1β production in PMA-differentiated THP-1 cells stimulated with gramicidin (hTHP-1 assay containing 2% fetal bovine serum; Procedures 1-3); assay type: cell-based, human; conditions: Homo sapiens, THP-1, hTHP-1 assay containing 2% fetal bovine serum; class symbols; read-out: hTHP-1 IC50 (Average IC50 of compounds in hTHP-1 assay)
pIC50: −log10 of the molar value.

COMPOUND	pIC50
CC(C)(O)c1ncc([S@](N)(=O)=NC(=O)Cn2c3ccccc3c3ccccc32)s1 [Compound 262b]	4.52 to 5.30
CC(C)c1cc(OC(F)F)cc(C(C)C)c1CC(=O)N=S(N)(=O)c1ccc(CN(C)C)cc1 (centres unmarked)	5.30 to 6.00
CC(C)c1c(F)c(C#N)cc(C2CC2)c1CC(=O)N=S(N)(=O)c1sc(C(C)(C)O)cc1F (centres unmarked)	7.40 to 8.10
CC(C)c1cc(-c2ccc3c(c2)COCC3)cc(C(C)C)c1CC(=O)N=S(N)(=O)c1cnc(C(C)(C)O)s1 (centres unmarked)	6.00 to 6.70
CC(C)c1ccc(C#N)c(C(C)C)c1CC(=O)N=S(N)(=O)c1cnc(C(C)(C)O)s1 (centres unmarked)	5.30 to 6.00
CC(C)c1cc(C#N)cc(C2CC2)c1CC(=O)N=S(N)(=O)c1ccc(CN(C)C)cc1 (centres unmarked) [Example 29]	4.52 to 5.30
CC(C)c1cc(C#N)cc(C(C)C)c1CC(=O)N=S(N)(=O)c1ccc(C(C)(C)O)cc1Cl (centres unmarked) [Example 34]	5.30 to 6.00
CC(C)c1cc(C#N)cc(C(C)C)c1CC(=O)N=S(N)(=O)c1sc(C(C)(C)O)nc1CO (centres unmarked)	6.00 to 6.70
